SYSTEM NAME: human TASK-1 (Homo sapiens (Human), UniProt O14649)
Sequence (O14649 whole entry): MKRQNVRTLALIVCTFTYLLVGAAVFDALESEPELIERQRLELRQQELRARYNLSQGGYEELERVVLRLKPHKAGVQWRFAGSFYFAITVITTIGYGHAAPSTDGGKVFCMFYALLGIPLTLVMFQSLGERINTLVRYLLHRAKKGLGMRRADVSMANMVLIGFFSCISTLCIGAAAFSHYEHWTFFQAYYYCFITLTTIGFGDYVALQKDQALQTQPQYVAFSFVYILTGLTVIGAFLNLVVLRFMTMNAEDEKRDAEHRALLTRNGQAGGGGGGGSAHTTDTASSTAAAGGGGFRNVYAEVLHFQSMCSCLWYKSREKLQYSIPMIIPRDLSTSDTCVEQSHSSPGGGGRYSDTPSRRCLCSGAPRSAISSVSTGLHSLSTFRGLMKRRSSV
ASSAY OVERVIEW: Two-electrode voltage clamp analysis of human TASK-1 channels in Xenopus laevis oocytes
Assay type: cell-based
CONDITION: oocytes, voltage clamp; comparative compounds, Table 1B
Experimental: B-1. In Vitro Electrophysiological Analysis of the Human TASK-1 and TASK-3 Channels Via Two-Electrode Voltage Clamp Technique in Xenopus laevis Oocytes Xenopus laevis oocytes were selected as described elsewhere in an exemplary manner [Decher et al., FEBS Lett. 492, 84-89 (2001)]. […] The measurements were carried out as described [Decher et al., FEBS Lett. 492, 84-89 (2001)] at room temperature (21-22° C.) using a Turbo TEC 10CD amplifier (NPI), recorded at 2 kHz and filtered with 0.4 kHz. […]
pIC50: −log10 of the molar value.
ASSAY ENDPOINT: pIC50

// query Please tell me: pIC50 of COc1cccc(-c2nc3ccccn3c2CN2CCN(C(=O)C3CCC3)CC2)c1 [drawing 125] , system human TASK-1 (Homo sapiens (Human), UniProt O14649)?
// result < 6.00

// query Please tell me: pIC50 of O=C(c1ccncc1)N1CCN(Cc2c(-c3ccc(Cl)cc3)nc3ccc(C4CC4)cn23)CC1 [drawing 124] , system human TASK-1 (Homo sapiens (Human), UniProt O14649)?
// result < 6.00

// query Please tell me: pIC50 of O=C(c1cccc(F)c1)N1CCN(Cc2c(-c3ccc(Cl)cc3)nc3ccc(C4CC4)cn23)CC1 [drawing 123] , system human TASK-1 (Homo sapiens (Human), UniProt O14649)?
// result < 6.00

// query Please tell me: pIC50 of O=C(c1cnccn1)N1CCN(Cc2c(-c3ccc(Cl)cc3)nc3ccc(C4CC4)cn23)CC1 [drawing 126] , system human TASK-1 (Homo sapiens (Human), UniProt O14649)?
// result < 6.00

// query Please tell me: pIC50 of O=C(c1ccccc1Cl)N1CCN(Cc2c(-c3ccc(Cl)cc3)nc3ccc(-c4ccccc4)cn23)CC1 [drawing 122] , system human TASK-1 (Homo sapiens (Human), UniProt O14649)?
// result < 4.52

----------
Consider the following compounds; for each one, report its pIC50.
SYSTEM NAME: UniProtKB Q9NPC2
Sequence (Q9NPC2 whole entry): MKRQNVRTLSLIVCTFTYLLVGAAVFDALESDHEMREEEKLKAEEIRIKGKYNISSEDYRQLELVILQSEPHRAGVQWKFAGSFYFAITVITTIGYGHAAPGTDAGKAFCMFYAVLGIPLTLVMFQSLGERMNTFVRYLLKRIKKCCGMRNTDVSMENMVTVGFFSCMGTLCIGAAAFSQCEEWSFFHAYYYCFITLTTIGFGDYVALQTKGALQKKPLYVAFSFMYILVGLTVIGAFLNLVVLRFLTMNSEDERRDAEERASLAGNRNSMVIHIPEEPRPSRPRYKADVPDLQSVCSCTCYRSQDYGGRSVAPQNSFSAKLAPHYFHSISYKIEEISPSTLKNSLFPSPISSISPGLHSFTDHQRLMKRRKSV
ASSAY OVERVIEW: Two-electrode voltage clamp analysis of human TASK-3 channels in Xenopus laevis oocytes
Format: cell-based
CONDITION: Xenopus laevis oocytes, two-electrode voltage clamp, room temperature; Table 1A
To interpret pIC50, take it as minus log10 of a concentration measured in moles per litre.

// query Find the recorded pIC50 belonging to `COc1cccc(C(=O)N2CCN(Cc3c(-c4ccc(Br)cc4)nc4ccccn34)CC2)n1` and report it.
// result 8.64

// query Find the recorded pIC50 belonging to `O=C(c1ccccc1F)N1CCN(Cc2c(-c3ccc(Br)cc3)nc3ccccn23)CC1` and report it.
// result 7.82

// query Find the recorded pIC50 belonging to `CC(C)c1ccc(-c2nc3ccccn3c2CN2CCN(C(=O)C3CCCC3)CC2)cc1` and report it.
// result 7.42

// query Find the recorded pIC50 belonging to `COc1cccc(C(=O)N2CCN(Cc3c(-c4ccc(Cl)cc4)nc4ccccn34)CC2)n1` and report it.
// result 7.55

// query Find the recorded pIC50 belonging to `CC(C)Oc1cccc(C(=O)N2CCN(Cc3c(-c4ccc(Cl)cc4)nc4ccccn34)CC2)n1` and report it.
// result 8.21

// query Find the recorded pIC50 belonging to `COc1cccc(C(=O)N2CCN(Cc3c(-c4ccc(C(C)C)cc4)nc4ccccn34)CC2)n1` and report it.
// result 7.10

// query Find the recorded pIC50 belonging to `O=C(C1CCCC1)N1CCN(Cc2c(-c3ccc(Br)cc3)nc3ccccn23)CC1` and report it.
// result 8.98

// query Find the recorded pIC50 belonging to `O=C(C1CCCC1)N1CCN(Cc2c(-c3ccc(Cl)cc3)nc3ccccn23)CC1` and report it.
// result 7.66

Where do these numbers come from? They come from patent US10759794B2.
